# credit: patent US8372967B2

System: PCSK9 mRNA
Assay text: Dose-dependent antisense inhibition of PCSK9 in Hep3B cells, EC50 (Table 76)
Assay type: cell-based, human
Test conditions: 5 nM
Strand notation (5' to 3'): a small letter for the sugar, then the base; units joined by * are phosphorothioate-linked, units joined directly phosphodiester-linked; [ ] holds rarer units or linkages, { } end groups; capitals alone tell only the bases. e = 2'-O-(2-methoxyethyl) (MOE); [5mC] = 5-methylcytosine; d = 2'-deoxy (DNA)
Observation type: % Inhibition
Remember to put the unit after the number in your answer.

Below: 2 substances and their reported % Inhibition.
400327 (antisense eG*eT*d[5mC]*d[5mC]*d[5mC]*d[5mC]*dA*dA*dA*dG*dT*d[5mC]*e[5mC]*e[5mC]) [compound 400327] ... 5%
400352 (antisense e[5mC]*eA*d[5mC]*d[5mC]*d[5mC]*dT*d[5mC]*dA*d[5mC]*d[5mC]*d[5mC]*d[5mC]*e[5mC]*eA) [compound 400352] ... 7%

Turning now to a further record.
Record 400330 (antisense e[5mC]*e[5mC]*dA*d[5mC]*dG*dT*dG*dG*dG*d[5mC]*dA*dG*e[5mC]*eA) [compound 400330] . Reported % Inhibition: 8%
